# protocol.text: chemical genetic growth profiling, strain panel (AID 1159580);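 note: tested at 20 µM; growth read once vehicle control cultures reached saturation at 30 °C; lower values mean less growth of the strain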
# measurement.conditions: S. cerevisiae deletion strains, growth OD, locus YNL175C, strain NOP13
Among all 5,500 compounds or so, about 2,000 (36%) were called active. Roughly 18% stayed inconclusive and do not appear here. Cut-off read from the data, not from the text of the source: active = normalized growth mostly below about 0.91 (no sharp cut-off); inconclusive = no clear call, values can overlap the other calls; inactive = mostly above about 0.92. The list shows a part of the results.
Result category, one only: active, inactive

For this molecule, state the assay outcome: "NC(=O)CNCCC(c1ccccc1)c1ccccc1" inactive

Also "CN(C)S(=O)(=O)c1ccc2c(c1)/C(=C/c1cc3c([nH]1)CCCC3)C(=O)N2" ? inactive

Then this molecule: "Cc1nc(N=Nc2ccc(S(=O)(=O)O)cc2S(=O)(=O)O)c(COP(=O)(O)O)c(C=O)c1O" inactive

How about "CN(C)C(=O)N=NC(=O)N(C)C" ? inactive

Then this molecule: "CN1CCN(CCCN2c3ccccc3Sc3ccc(C(F)(F)F)cc32)CC1" active

Another molecule to look at: CCCCCCCCCCCCCCCCOCC(COCC(F)(F)F)OP(=O)(O)OCO (configuration not stated) inactive

Another: "OCCN1CCN(CC/C=C2/c3ccccc3Sc3ccc(C(F)(F)F)cc32)CC1" inactive

Then this molecule: "O=C(Cc1ccc(Cl)c(Cl)c1)OCCN1CCCC1" inactive

Another molecule to look at: Nc1ncnc2c1nc(Br)n2C1OC2COP(=O)(O)O[C@@H]2C1O (some centres not stated) inactive

What would you report for CNC(=O)[C@H]1O[C@@H](n2cnc3c(NCc4ccc(N)cc4)ncnc32)C(O)[C@H]1O (some centres not stated) ? inactive

Moving on to CCCCCN(CCCCC)C(=O)C(CCC(=O)O)NC(=O)c1ccc(Cl)c(Cl)c1 (configuration not stated) inactive

Check CC(C)NCC(O)c1ccc(NS(C)(=O)=O)cc1 (configuration not stated) too. inactive

Thanks! And "CN1CCN(CC/C=C2/c3ccccc3Sc3ccc(S(=O)(=O)N(C)C)cc32)CC1" ? inactive

// same read-out, input: COc1ccccc1N1CCN(CC(O)COc2cccc3ccccc23)CC1 (configuration not stated) inactive

Next molecule: "O=C(O)c1cc(=O)c2c(Cl)cc(Cl)cc2[nH]1" inactive

Now consider "O=C(O)/C(=C/c1c(C(=O)O)[nH]c2cc(Cl)cc(Cl)c12)c1ccccc1" and answer again. inactive

Now consider "COc1cc2c(cc1OC)-c1cc(=Nc3c(C)cc(C)cc3C)n(C)c(=O)n1CC2" . inactive

Try the molecule "NC(N)=NC(N)=Nc1ccccc1" inactive

Now this one: "C[C@]12CCC(=O)C=C1CC[C@@H]1[C@@H]2CC[C@@]2(C)[C@H]1CC[C@]2(O)C(=O)CO" inactive

What about this molecule? NC(C(=O)O)c1cc(=O)[nH]o1 (configuration not stated) inactive

Repeat with "Cc1cc(C(C)(C)C)cc(C)c1CC1=NCCN1" inactive

Please give the result for Cn1cc(C(F)(F)F)nc1-c1ccc(OCC(O)CNCCOc2ccc(O)c(C(N)=O)c2)cc1 (configuration not stated) too. inactive
